I'd be grateful if you could share measured effect on crop, Corn (level) for these entries.
System: corn
Assay: post-emergence stage experiment, crop (Table 1)
Assay type: in vivo
Settings: post-emergence spray at 4-5 leaf stage, 250 g/ha active ingredient with 450 kg/ha water, rated after 3 weeks in greenhouse
Description: The activity level standard of harmful plant destruction (i.e. growth control rate) is as follows: The above described growth control rate is fresh weight control rate. Monocotyledonous and dicotyledonous weed seeds and main crop seeds (i.e. wheat, corn, rice, soybean, cotton, oilseed, millet and sorghum.) were put into a plastic pot loaded with soil. Then covered with 0.5-2 cm soil, the seeds were allowed to grow in good greenhouse environment. […]

Exercise: Recorded effect on crop, Corn (level) for CCn1ncc(C(=O)c2ccc(C(F)(F)F)c(N3CCCC3=O)c2Cl)c1O , please?
Solution: 0

Exercise: Can you share its effect on crop, Corn (level)? I mean this molecule: CCOC(=O)Oc1c(C(=O)c2ccc(C(F)(F)F)c(-n3cccn3)c2Cl)c(C)nn1C
Solution: 0

Exercise: Form field: reported effect on crop, Corn (level) of CCOC(=O)Oc1c(C(=O)c2ccc(C(F)(F)F)c(-n3ccc(C)n3)c2Cl)c(C)nn1C
Solution: 0

Exercise: Value lookup for effect on crop, Corn (level); key = CCn1nc(C)c(C(=O)c2ccc(C(F)(F)F)c(-n3cc(C)cn3)c2Cl)c1O
Solution: 2 (Level 2: 5%-20% growth control rate)

----------
system: sagittaria trifolia; assay: weed control effect evaluation in rice field; type: in vivo; set-up: key: Level 10: completely dead; Level 9: above 95% growth control rate; Level 8: above 90% growth control rate; Level 7: above 80% growth control rate; Level 6: above 70% growth control rate; Level 5: above 60% growth control rate; Level 4: above 50% growth control rate; Level 3: above 20% growth control rate; Level 2: 5%-20% growth control rate; Level 1: below 5% growth control rate; conditions: 125 g/ha ai; rice field pot; 14 days after treatment; resistant to pyrazosulfuron-ethyl
Experimental Readout: Sagittaria trifolia weed control effect (activity level)
Respond numerically, and do not add a unit to the figure.

Exercise: Which Sagittaria trifolia weed control effect (activity level) reading was recorded for the compound CCOc1c(C(=O)Oc2c(C(=O)c3ccc(C(F)(F)F)c(-n4cccn4)c3Cl)c(C)nn2C)cnn1C ?
Solution: 10

Exercise: What does the data say about its Sagittaria trifolia weed control effect (activity level)? Entry: CCOc1c(C(=O)Oc2c(C(=O)c3ccc(C(F)(F)F)c(-n4cc(C)cn4)c3Cl)cnn2C)cnn1C
Solution: 10

Exercise: Consider the compound shown here: CCOc1c(C(=O)Oc2c(C(=O)c3ccc(C(F)(F)F)c(N4CCCCC4=O)c3Cl)c(C)nn2C)cnn1C What is its recorded Sagittaria trifolia weed control effect (activity level)?
Solution: 10

----------
system: corn; test: post-emergence stage experiment, crop (Table 1); type: in vivo; conditions: post-emergence spray at 4-5 leaf stage, 250 g/ha active ingredient with 450 kg/ha water, rated after 3 weeks in greenhouse
Experimental Readout: effect on crop, Corn (level)

Exercise: Using the record for CCn1nc(C2CC2)c(C(=O)c2ccc(C(F)(F)F)c(-n3cc(C)cn3)c2Cl)c1O [Compound 144] , report its effect on crop, Corn (level).
Solution: 0

----------
system: wheat; assay: wheat field test, crop selectivity, greenhouse spray at 4 leaf stage; assay type: in vivo; settings: 2 g/mu; sprayed at 4 leaf stage; 4 weeks after treatment
Experimental Readout: Wheat (activity level, crop damage)

Exercise: Consider the compound shown here: Cc1nn(C)c(O)c1C(=O)c1ccc(C(F)(F)F)c(N2CCCCC2=O)c1Cl [Compound 035] What is its recorded Wheat (activity level, crop damage)?
Solution: 0

Exercise: Any idea what its Wheat (activity level, crop damage) is? The compound is CCOc1c(C(=O)Oc2c(C(=O)c3ccc(C(F)(F)F)c(N4CCCCC4=O)c3Cl)c(C3CC3)nn2C)cnn1C [Compound 048]
Solution: 0

Exercise: Returns the measured Wheat (activity level, crop damage) for the input compound. Input: CCn1nc(C2CC2)c(C(=O)c2ccc(C(F)(F)F)c(N3CCCCC3=O)c2Cl)c1OC(=O)c1cn(C)nc1C [Compound 115]
Solution: 0

Exercise: Reported Wheat (activity level, crop damage) for Cn1nc(C2CC2)c(C(=O)c2ccc(C(F)(F)F)c(N3CCCCC3=O)c2Cl)c1O [Compound 046] : what is it?
Solution: 0

Exercise: Could you share which Wheat (activity level, crop damage) value was measured for Cn1cc(C(=O)Oc2c(C(=O)c3ccc(C(F)(F)F)c(N4CCCCC4=O)c3Cl)c(C3CC3)nn2C)cn1 [Compound 049] ?
Solution: 0

----------
tested on: wheat; assay: wheat field test, crop selectivity, greenhouse spray at 4 leaf stage; format: in vivo; conditions: 4 g/mu; sprayed at 4 leaf stage; 4 weeks after treatment
Experimental Readout: Wheat (activity level, crop damage)

Exercise: Would you kindly share the measured Wheat (activity level, crop damage) for Cc1nn(C)cc1C(=O)Oc1c(C(=O)c2ccc(C(F)(F)F)c(N3CCCC3=O)c2Cl)c(C)nn1C ?
Solution: 2 (Level 2: 5%-20% growth control rate)

Exercise: Report Wheat (activity level, crop damage) for CCS(=O)(=O)Oc1c(C(=O)c2ccc(C(F)(F)F)c(N3CCCC3=O)c2Cl)c(C)nn1C please.
Solution: 0

Exercise: Can you look up the measured Wheat (activity level, crop damage) of Cc1nn(C)c(O)c1C(=O)c1ccc(C(F)(F)F)c(N2CCCCC2=O)c1Cl for me?
Solution: 0

Exercise: What value of Wheat (activity level, crop damage) has been reported for the following molecule? CCOc1c(C(=O)Oc2c(C(=O)c3ccc(C(F)(F)F)c(N4CCCCC4=O)c3Cl)c(C3CC3)nn2C)cnn1C
Solution: 0

Exercise: # lookup: Wheat (activity level, crop damage) of Cn1nc(C2CC2)c(C(=O)c2ccc(C(F)(F)F)c(N3CCCCC3=O)c2Cl)c1O
Solution: 0

----------
Test system: rice
Experiment: post-emergence stage experiment, crop (Table 1)
Type: in vivo
Settings: post-emergence spray at 4-5 leaf stage, 250 g/ha active ingredient with 450 kg/ha water, rated after 3 weeks in greenhouse
Excerpt: The activity level standard of harmful plant destruction (i.e. growth control rate) is as follows: The above described growth control rate is fresh weight control rate. Monocotyledonous and dicotyledonous weed seeds and main crop seeds (i.e. wheat, corn, rice, soybean, cotton, oilseed, millet and sorghum.) were put into a plastic pot loaded with soil. Then covered with 0.5-2 cm soil, the seeds were allowed to grow in good greenhouse environment. […]
Experimental Readout: effect on crop, Rice (level)

Exercise: Record request: effect on crop, Rice (level) value, item CC(=O)N(CCCOC(C)C)c1c(C(F)(F)F)ccc(C(=O)c2c(C)nn(C)c2O)c1Cl [Compound 010]
Solution: 0

----------
Record form. Attribute: Echinochloa weed control effect (activity level). Fill in for each entry.
Test system: echinochloa
Assay: weed control effect evaluation in rice field
Format: in vivo
Set-up: key: Level 10: completely dead; Level 9: above 95% growth control rate; Level 8: above 90% growth control rate; Level 7: above 80% growth control rate; Level 6: above 70% growth control rate; Level 5: above 60% growth control rate; Level 4: above 50% growth control rate; Level 3: above 20% growth control rate; Level 2: 5%-20% growth control rate; Level 1: below 5% growth control rate
Conditions: 125 g/ha ai; rice field pot; 14 days after treatment; resistant to pyrazosulfuron-ethyl
Description: The activity level standard of harmful plant destruction (i.e. growth control rate) is as follows: Rice field soil was loaded into a 1/1,000,000 ha pot. The seeds of echinochloa, scirpus juncoides, bidens tripartite and sagittaria trifolia were sowed and gently covered with soil, then left to stand still in greenhouse in the state of 0.5-1 cm of water storage. The tuber of sagittaria trifolia was planted in the next day or 2 days later. It was kept at 3-4 cm of water storage thereafter. […]
Keep it simple and answer with nothing but the number.

Exercise: For echinochloa, provide Echinochloa weed control effect (activity level) of CCOc1c(C(=O)Oc2c(C(=O)c3ccc(C(F)(F)F)c(N4CCCCC4=O)c3Cl)c(C)nn2C)cnn1C please.
Solution: 10

Exercise: Look up Echinochloa weed control effect (activity level) with echinochloa for this molecule: CCOc1c(C(=O)Oc2c(C(=O)c3ccc(C(F)(F)F)c(-n4cc(C)cn4)c3Cl)c(C3CC3)nn2C)cnn1C
Solution: 10

Exercise: Provide the documented Echinochloa weed control effect (activity level) with echinochloa as the system for CCn1nc(C)c(C(=O)c2ccc(C(F)(F)F)c(-n3cccn3)c2Cl)c1O
Solution: 10

Exercise: Form field: Echinochloa weed control effect (activity level) recorded for Cc1nn(C)cc1C(=O)Oc1c(C(=O)c2ccc(C(F)(F)F)c(N3CCCC3=O)c2Cl)c(C)nn1C with echinochloa (enter value)
Solution: 10

Exercise: Form field: Echinochloa weed control effect (activity level) recorded for CCOc1c(C(=O)Oc2c(C(=O)c3ccc(C(F)(F)F)c(-n4cc(C)cn4)c3Cl)cnn2C)cnn1C with echinochloa (enter value)
Solution: 10

Exercise: Request: Echinochloa weed control effect (activity level), test system echinochloa, entry Cc1ccn(-c2c(C(F)(F)F)ccc(C(=O)c3c(C)nn(C)c3O)c2Cl)n1
Solution: 10

Exercise: Request - read-out Echinochloa weed control effect (activity level) | tested on echinochloa | molecule Cc1nn(C)c(O)c1C(=O)c1ccc(C(F)(F)F)c(N)c1Cl
Solution: 10

Exercise: Lookup: Echinochloa weed control effect (activity level) / echinochloa / CCn1nc(C)c(C(=O)c2ccc(C(F)(F)F)c(-n3cccn3)c2Cl)c1OC(=O)c1cn(C)nc1C
Solution: 10

Exercise: Please tell me: Echinochloa weed control effect (activity level) of CCOc1c(C(=O)Oc2c(C(=O)c3ccc(C(F)(F)F)c(-n4cccn4)c3Cl)c(C)nn2C)cnn1C , system echinochloa?
Solution: 10

Exercise: Find Echinochloa weed control effect (activity level) (echinochloa) for the entry Cc1nn(C)c(O)c1C(=O)c1ccc(C(F)(F)F)c(-n2cccn2)c1Cl
Solution: 10
